Entries and their measured IC50 follow.
- Measurement target: biotin-labeled hCTLA-4/Fc protein (UniProt P16410 37-161, biotin label in the FACS competition assays (sites not given))
- Sequence (P16410 37-161): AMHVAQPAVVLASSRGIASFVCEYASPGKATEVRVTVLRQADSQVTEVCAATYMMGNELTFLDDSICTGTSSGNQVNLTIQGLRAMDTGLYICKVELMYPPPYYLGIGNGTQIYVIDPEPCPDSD
- Method summary: FACS ligand competition
Value type: IC50 (nM)

1. A36922 HCAb (Fc fusion) heavy: QVQLVESGGGLVQAGGSLRLSCAASGRLSRTFTMGWYRQAPGKQRDLVASITTSGSTNYADSVKGRFTISRDNAKNTVILQMNSLVPEDTAVYYCRFLSASTAAWGQGTQVTIST    14.1
2. A36566 HCAb (Fc fusion) heavy: EVQLVESGGGLVQVGDSLRLSCAASGRSFENYAIGWFRQAPGKEREFVATISWIPRTAYSTTYYADSVKGRFTISGDNSKNTVYLQMTSLKPEDTAVYYCAAGGATGPLALDSHYGYWGQGTQVTVSS    6.6
3. AS07014 HCAb (Fc fusion) heavy: QVHLVESGGGSVQAGGSLRLSCAASGYTYSRHCLGWFRQTPGKEREAVATIDSDGSTSYADSVKGRFTISSDNAKNTLYLQMNSLKPEDTAMYYCAIGPNPRYCSGAPNTRGAEHYFGYWAQGTQVTVSS    12.3
4. AS07189 HCAb (Fc fusion) heavy: QVQLVESGGGSVQAGGSLRLSCAASGDSPSVNYMGWFRRAPEKQREQREEVASIYPTGGTFYTDSVKGRFTISRDNAKNTLYLQMTALKPEDTAMYYCAAGKWGTDYWGQGTQVIVSS    11.9

These data points were gathered from patent US20190233519A1.
